Cited source for all entries: ChEMBL document CHEMBL3808348

Biological target: UniProtKB P16234
Sequence (P16234 whole entry): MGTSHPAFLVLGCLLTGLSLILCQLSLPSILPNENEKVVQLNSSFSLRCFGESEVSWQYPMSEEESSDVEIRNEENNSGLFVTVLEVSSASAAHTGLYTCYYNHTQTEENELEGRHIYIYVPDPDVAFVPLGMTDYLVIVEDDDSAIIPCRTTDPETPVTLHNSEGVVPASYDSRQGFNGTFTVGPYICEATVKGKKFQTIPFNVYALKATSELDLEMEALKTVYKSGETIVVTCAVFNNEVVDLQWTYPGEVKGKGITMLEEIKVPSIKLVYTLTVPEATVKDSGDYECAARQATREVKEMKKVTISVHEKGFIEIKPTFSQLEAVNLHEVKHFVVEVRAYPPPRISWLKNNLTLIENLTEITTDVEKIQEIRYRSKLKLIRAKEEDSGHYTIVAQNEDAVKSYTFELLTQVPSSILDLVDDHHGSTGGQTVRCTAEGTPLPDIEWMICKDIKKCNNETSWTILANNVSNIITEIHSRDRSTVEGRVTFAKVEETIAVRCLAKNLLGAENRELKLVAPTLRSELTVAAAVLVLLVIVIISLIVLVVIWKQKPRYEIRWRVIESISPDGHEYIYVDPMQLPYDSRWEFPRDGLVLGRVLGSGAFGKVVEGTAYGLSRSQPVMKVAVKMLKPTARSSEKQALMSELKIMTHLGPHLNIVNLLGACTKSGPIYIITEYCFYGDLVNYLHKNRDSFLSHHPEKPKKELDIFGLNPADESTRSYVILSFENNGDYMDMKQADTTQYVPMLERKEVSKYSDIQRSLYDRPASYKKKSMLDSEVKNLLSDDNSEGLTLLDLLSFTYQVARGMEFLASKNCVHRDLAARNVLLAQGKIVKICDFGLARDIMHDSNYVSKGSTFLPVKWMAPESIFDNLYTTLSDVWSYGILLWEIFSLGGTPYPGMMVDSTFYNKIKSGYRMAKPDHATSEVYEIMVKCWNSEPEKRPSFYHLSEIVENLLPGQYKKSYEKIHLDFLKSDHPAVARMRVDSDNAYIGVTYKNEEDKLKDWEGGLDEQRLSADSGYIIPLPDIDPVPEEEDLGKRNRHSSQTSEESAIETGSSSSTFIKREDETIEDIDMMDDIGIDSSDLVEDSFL
Assay: Inhibition of full length GST-tagged human recombinant PDGFRalpha expressed in baculovirus using Fluorescein-Poly GT as substrate at 100 nM
recorded_endpoint: inhibition (%)

Look over these answered cases.
COC(=O)c1cc2cc(NCc3cc(NC(=O)c4cc(N(C)C)cc(C(F)(F)F)c4)ccc3C)cnc2[nH]1 = 42
CC(=O)c1cc2cc(CCc3cc(NC(=O)c4ccc(CN5CCC(N(C)C)C5)c(C(F)(F)F)c4)ccc3C)cnc2[nH]1 (stereo not drawn) = 89
COC(=O)c1cc2cc(CCc3cc(NC(=O)c4ccc(CN5CCC(N(C)C)C5)c(C(F)(F)F)c4)ccc3C)cnc2[nH]1 (stereo not drawn) = 105
COC(=O)c1cc2cc(/C=C/c3cc(NC(=O)c4ccc(CN5CCC(N(C)C)C5)c(C(F)(F)F)c4)ccc3C)cnc2[nH]1 (stereo not drawn) = 68
CC(=O)c1cc2cc(NCc3cc(NC(=O)c4ccc(CN5CCN(C)CC5)cc4)ccc3C)cnc2[nH]1 = 96

(A) COC(=O)c1cc2cc(NCc3cc(NC(=O)c4ccnc(C)c4)ccc3C)cnc2[nH]1
(B) COC(=O)c1cc2cc(NCc3cc(NC(=O)c4ccnc(C(F)(F)F)c4)ccc3C)cnc2[nH]1
Data request: Between A and B , which one has the lower reported inhibition value? To answer, give the label that identifies your chosen option.
Data returned: B
(B: 42%, A: 82%)

###

Target: Epidermal growth factor receptor (Homo sapiens, UniProt P00533)
Sequence (P00533 whole entry, the tested form may be a part): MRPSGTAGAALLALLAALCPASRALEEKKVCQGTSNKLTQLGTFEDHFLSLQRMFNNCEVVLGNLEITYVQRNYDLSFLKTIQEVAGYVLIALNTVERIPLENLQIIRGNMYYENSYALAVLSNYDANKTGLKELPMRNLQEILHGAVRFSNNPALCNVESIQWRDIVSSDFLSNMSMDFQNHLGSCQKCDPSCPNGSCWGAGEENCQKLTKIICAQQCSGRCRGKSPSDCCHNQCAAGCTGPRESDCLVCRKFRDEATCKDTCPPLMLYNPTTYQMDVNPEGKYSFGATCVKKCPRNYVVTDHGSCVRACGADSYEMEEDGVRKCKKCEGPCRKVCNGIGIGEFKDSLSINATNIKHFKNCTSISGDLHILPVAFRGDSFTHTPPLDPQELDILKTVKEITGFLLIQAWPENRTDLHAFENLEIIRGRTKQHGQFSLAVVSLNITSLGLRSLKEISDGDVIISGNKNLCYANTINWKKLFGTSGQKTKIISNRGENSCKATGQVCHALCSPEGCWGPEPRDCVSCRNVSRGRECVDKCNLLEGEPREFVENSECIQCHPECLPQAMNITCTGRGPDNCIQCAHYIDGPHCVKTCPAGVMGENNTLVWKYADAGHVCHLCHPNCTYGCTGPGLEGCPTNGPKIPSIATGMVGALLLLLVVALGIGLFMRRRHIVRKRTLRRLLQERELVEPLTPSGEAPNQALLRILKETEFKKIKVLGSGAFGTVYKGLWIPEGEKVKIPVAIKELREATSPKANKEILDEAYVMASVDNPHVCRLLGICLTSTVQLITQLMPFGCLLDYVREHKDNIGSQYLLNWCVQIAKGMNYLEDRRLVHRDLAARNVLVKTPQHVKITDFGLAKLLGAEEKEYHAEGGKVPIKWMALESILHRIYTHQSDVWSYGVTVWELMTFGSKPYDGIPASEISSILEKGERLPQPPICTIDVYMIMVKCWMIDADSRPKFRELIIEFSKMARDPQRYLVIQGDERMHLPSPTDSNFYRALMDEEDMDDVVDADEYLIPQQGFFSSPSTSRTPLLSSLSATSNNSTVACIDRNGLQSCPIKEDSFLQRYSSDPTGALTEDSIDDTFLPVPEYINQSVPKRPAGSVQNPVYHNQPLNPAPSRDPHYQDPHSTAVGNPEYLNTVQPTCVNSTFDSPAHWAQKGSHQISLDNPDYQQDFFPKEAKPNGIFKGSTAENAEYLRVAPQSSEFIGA
Experiment: Inhibition of GST-tagged human recombinant EGFR (668 to1210 residues) expressed in baculovirus using Fluorescein-Poly GT as substrate at 100 nM
recorded_endpoint: inhibition (%)

CC(=O)c1cc2cc(CCc3cc(NC(=O)c4ccc(CN5CCN(C)CC5)cc4)ccc3C)cnc2[nH]1 = 86

(P) COC(=O)c1cc2cc(NCc3cc(NC(=O)c4cccc(C(F)(F)F)c4)ccc3C)cnc2[nH]1
(Q) COC(=O)c1cc2cc(NCc3cc(NC(=O)c4cccc(C)c4)ccc3C)cnc2[nH]1
Data request: Kindly identify which of P and Q has the larger recorded inhibition value. Label of pick, please.
Data returned: P
(P: 63%, Q: 32%)

###

Molecular target: Vascular endothelial growth factor receptor 2 (Homo sapiens)
Test: Inhibition of full length His-tagged human recombinant VEGFR2 expressed in baculovirus using Fluorescein-Poly GT as substrate at 100 nM
recorded_endpoint: inhibition (%)

Some molecules with known inhibition results, for comparison:
COC(=O)c1cc2cc(NCc3cc(NC(=O)c4ccnc(C)c4)ccc3C)cnc2[nH]1 = 46
COC(=O)c1cc2cc(CCc3cc(NC(=O)c4ccc(CN5CCN(C)CC5)cc4)ccc3C)cnc2[nH]1 = 98
COC(=O)c1cc2cc(NCc3cc(NC(=O)c4ccnc(C(F)(F)F)c4)ccc3C)cnc2[nH]1 = 13
COC(=O)c1cc2cc(NCc3cc(NC(=O)c4ccccc4OC)ccc3C)cnc2[nH]1 = 42
COC(=O)c1cc2cc(NCc3cc(NC(=O)c4cncc(C)c4)ccc3C)cnc2[nH]1 = 89

(a) COC(=O)c1cc2cc(NCc3cc(NC(=O)c4ccc(CN5CCC(N(C)C)C5)c(C(F)(F)F)c4)ccc3C)cnc2[nH]1 (stereo not given)
(b) COC(=O)c1cc2cc(CNc3cc(NC(=O)c4ccc(CN5CCN(C)CC5)cc4)ccc3C)cnc2[nH]1
Data request: Which one would you say has the larger inhibition value: a , or b ? Kindly give the label for the entry you pick.
Data returned: a

(1) CC(=O)c1cc2cc(NCc3cc(NC(=O)c4ccc(CN5CCC(N(C)C)C5)c(C(F)(F)F)c4)ccc3C)cnc2[nH]1 (stereo not given)
(2) COC(=O)c1cc2cc(NCc3cc(NC(=O)c4ccc(O)c(C(F)(F)F)c4)ccc3C)cnc2[nH]1
Data request: Form field 'greater inhibition' accepts 1 or 2 ; which applies? Let me know the label of the one you choose.
Data returned: 1
